Test system: pigweed
Assay: Test B pre/postemergence pigweed
Type: in vivo, Amaranthus retroflexus
Conditions: Postemergence, Rate 62 g/ha; scale 0 to 10, 0 is no effect, 10 is complete control
Below is a list of entries, each paired with its recorded Plant response rating, Redroot pigweed value.
Reply with the value as a number alone.

Reference set (4 entries):
COMPOUND	Plant response rating, Redroot pigweed
C#CCCn1c(=O)on(C(=O)N(c2ccc(F)cc2F)C(C)C)c1=O	0
CC(C)N(C(=O)n1oc(=O)n(CCC(=O)N(C)C)c1=O)c1ccccc1	0
Cc1nc(C(C)n2c(=O)on(C(=O)N(c3ccccc3)C(C)C)c2=O)sc1C (stereo not drawn)	0
CCC(C)n1c(=O)on(C(=O)N(c2ccc(F)cc2)C(C)C)c1=O (stereo not drawn)	1

Data request, read-out Plant response rating, Redroot pigweed, for CC(C)N(C(=O)n1oc(=O)n(CC(C)[N+](=O)[O-])c1=O)c1ccccc1 (stereo not drawn)
0

May I ask what Plant response rating, Redroot pigweed has been recorded for CCOC(CC)n1c(=O)on(C(=O)N(c2ccc(Cl)cc2)C(C)C)c1=O (stereo not drawn) ?
0

Value lookup for Plant response rating, Redroot pigweed; key = CCOP(=O)(OCC)C(C)n1c(=O)on(C(=O)N(c2ccc(Cl)cc2)C(C)C)c1=O (stereo not drawn)
2

Which Plant response rating, Redroot pigweed is listed for CC(C)N(C(=O)n1oc(=O)n(CC2CCCCO2)c1=O)c1ccc(F)cc1 (stereo not drawn) ?
0

// returns reported Plant response rating, Redroot pigweed for input C#CCn1c(=O)on(C(=O)N(c2ccc(F)cc2)C(C)C)c1=O
0

---

Below, each entry is listed alongside its reported Plant response rating, Giant foxtail.
System: giant foxtail
Assay: Test B pre/postemergence giant foxtail
Type: in vivo, Setaria faberii
Details: Preemergence, Rate 125 g/ha; scale 0 to 10 (0 no effect, 10 complete control)
Experimental: […] At the same time, these crop and weed species were also treated with postemergence applications of test chemicals formulated in the same manner. […] Treated plants and controls were maintained in a greenhouse for twelve to sixteen days, after which all species were compared to controls and visually evaluated. […]
Could you respond with only the numeric value?

Illustrative cases are given below, each with its answer.
COc1ccc(-n2c(=O)on(C(=O)N(C3=CCOCC3)C(C)C)c2=O)cc1 3
CCn1c(=O)on(C(=O)N(c2ccc(Cl)cc2)C(C)C)c1=O 10
Cc1ccccc1Cn1c(=O)on(C(=O)N(c2ccc(F)cc2)C(C)C)c1=O 6
Cc1ccccc1-n1c(=O)on(C(=O)N(c2ccc(C#N)cc2)C(C)C)c1=O 2

Now for the compound whose Plant response rating, Giant foxtail we want.
Param item = CC(C)N(C(=O)n1oc(=O)n(C2CCCCC2)c1=O)c1ccc(Cl)cc1 ; retrieve measured Plant response rating, Giant foxtail.
9

---

Tested on: giant foxtail
Assay: Test B pre/postemergence giant foxtail
Assay type: in vivo, Setaria faberii
Conditions: Postemergence, Rate 62 g/ha; scale of 0 to 10, 0 is no effect, 10 is complete control
VALUE_KIND: Giant foxtail plant response rating
Please respond with just the number, no unit label.

Examples from the recorded data:
COMPOUND	Giant foxtail plant response rating
CC(C)N(C(=O)n1oc(=O)n(CCc2ccccc2)c1=O)c1ccc(F)cc1F	8
CCOC(=O)C=C(Cn1c(=O)on(C(=O)N(c2ccc(F)cc2F)C(C)C)c1=O)OCC	4
CC(C)=CCn1c(=O)on(C(=O)N(c2ccc(Cl)cc2)C(C)C)c1=O	0
CC(=O)C(C)n1c(=O)on(C(=O)N(c2ccccc2)C(C)C)c1=O (centres unmarked)	2

// lookup Giant foxtail plant response rating for CC(=O)OCC(CCl)n1c(=O)on(C(=O)N(c2ccc(F)cc2)C(C)C)c1=O (centres unmarked)
0
